target entity: T1, full-length human CTLA4 expressed on cells (human, UniProt P16410 36-223)
T1 construct: whole, on cells; also called HEK293F/hCTLA-4 cells; HEK293F/hCTLA4 cells
T1 sequence (looked up): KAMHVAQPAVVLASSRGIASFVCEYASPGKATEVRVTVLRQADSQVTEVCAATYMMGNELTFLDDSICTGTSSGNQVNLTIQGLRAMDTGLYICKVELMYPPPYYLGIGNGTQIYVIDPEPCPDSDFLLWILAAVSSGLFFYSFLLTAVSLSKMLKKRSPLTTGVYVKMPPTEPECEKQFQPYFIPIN
assay remarks: flow cytometry blocking: HEK293F cells with human CTLA4, 100 nM antibody, then 100 nM CD80-Fc-Bio (blocked ligand); PBSA panel: Mean 157692, 26.3%
endpoint: Mean of the CD80 binding signal in the presence of the antibody

- TY21585 (antibody, V domains shown, human IgG1 (hIgG1) from Fab hit B15709) VH: EVQLVESGGGLVQPGGSLRLSCAASGFTFSDYAIHWVRQAPGKGLEWIGIISPSSGSTNYAQKFQGRVTISRDNSKNTLYLQLNSLRAEDTAVYYCARDIHSGSSGYYYGFDVWGQGTLVTVSS VL: DIQLTQSPSSLSASVGDRVTITCRASESVDFFGISFLAWYQQKPGKAPKLLIYDASNRATGIPSRFSGSGSGTDFTLTISSLQPEDFATYYCQHYTSSPPVYTFGQGTKVEIK: 83700

These data points were gathered from patent US20190241662A1.
